Sourced from patent US9096593B2

Measured IC50, listed per entry.
target: Fms kinase (Homo sapiens (Human), UniProt P07333); test: Fms kinase biochemical activity assay (AlphaScreen, biotin-(E4Y)10 phosphorylation); conditions: read-out: Biochemical activity (IC50 μM) Fms
Sequence (P07333 20-972): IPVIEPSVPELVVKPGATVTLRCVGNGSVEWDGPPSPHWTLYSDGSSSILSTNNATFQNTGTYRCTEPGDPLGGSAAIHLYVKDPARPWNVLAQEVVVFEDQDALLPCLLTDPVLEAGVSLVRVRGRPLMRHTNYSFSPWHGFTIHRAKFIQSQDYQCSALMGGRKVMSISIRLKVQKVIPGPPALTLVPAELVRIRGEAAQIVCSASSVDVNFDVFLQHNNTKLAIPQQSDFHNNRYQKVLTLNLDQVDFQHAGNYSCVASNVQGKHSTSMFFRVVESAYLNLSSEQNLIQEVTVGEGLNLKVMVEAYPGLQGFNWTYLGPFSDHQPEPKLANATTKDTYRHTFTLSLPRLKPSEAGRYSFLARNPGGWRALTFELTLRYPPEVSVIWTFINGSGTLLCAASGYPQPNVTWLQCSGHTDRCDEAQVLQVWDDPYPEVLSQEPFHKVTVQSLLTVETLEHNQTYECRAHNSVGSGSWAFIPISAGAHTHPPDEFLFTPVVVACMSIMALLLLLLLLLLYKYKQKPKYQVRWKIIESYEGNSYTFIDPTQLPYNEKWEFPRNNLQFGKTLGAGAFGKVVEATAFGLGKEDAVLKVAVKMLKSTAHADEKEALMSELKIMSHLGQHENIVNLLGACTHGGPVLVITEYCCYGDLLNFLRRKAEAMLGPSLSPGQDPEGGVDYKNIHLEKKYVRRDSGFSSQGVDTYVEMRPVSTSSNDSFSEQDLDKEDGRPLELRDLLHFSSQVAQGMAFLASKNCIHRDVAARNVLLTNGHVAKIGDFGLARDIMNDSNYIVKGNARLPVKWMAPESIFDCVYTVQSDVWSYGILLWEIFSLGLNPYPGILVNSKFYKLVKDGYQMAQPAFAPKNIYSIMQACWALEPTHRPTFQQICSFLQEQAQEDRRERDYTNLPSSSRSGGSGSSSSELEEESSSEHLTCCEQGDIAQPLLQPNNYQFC

Sample records with IC50:
1) Cc1cnc2[nH]cc(Cc3ccc(NCc4ccc(C(F)(F)F)nc4)nc3)c2c1    < 0.1 µM
2) Cn1cc(F)cc(CNc2ncc(Cc3c[nH]c4ncc(Cl)cc34)cn2)c1=O    > 0.1 µM
3) CS(=O)(=O)Nc1cnc2[nH]cc(Cc3ccc(NCc4ccc(Cl)nc4)nc3F)c2c1    < 0.1 µM

Consider now this further molecule.
Item Cc1cnc2[nH]cc(Cc3cnc(NCc4cccnc4OC4CCCC4)nc3)c2c1 has what recorded IC50? < 0.1 µM
